Measured values drawn from patent US20160304615A1 for this set.

Molecular target: T1, EGFR-mFc (human)
T1 construct: Soluble dimeric protein
Test: SPR 37C, receptor-capture; 37 C, receptor-capture format (EGFR-mFc captured)
koff by entry:

[ask] Read off the recorded koff for H1H1911N (antibody, human IgG1, V domains shown, Human IgG1 Fc; also called H2M1911N (same variable domains)) VH: QVQLVESGGGVVQPGRSLRLSCAASGFTFSRYGIHWVRQAPGKGLEWVAVIWHDGSNKYYADSVKGRFTISRDNSKNTLYLQMTSLRAEDTAVYYCARDGLEIRDHYYYGMDVWGQGTTVTVSS VL: DIQMTQSPSTLSASVGDRVTITCRASQSTSSWLAWYQQKPGKAPTLLIYKASSLESGVPSKFSGSGSGTEFTLTISSLQPDDFATYYCQQYNRYSRTFGQGTKVEIK
[reply] 0.00174 s⁻¹
